Data origin, for the record: patent US20260355212A1

Record form. Attribute: pIC50. Fill in for each entry.
- target.entity: SARS-CoV-2 Mpro (Severe acute respiratory syndrome coronavirus 2)
- test.method.notes: SARS-CoV-2 Mpro enzymatic inhibition assay (fluorescence)
- Format: biochemical
Give bare numbers, as −log10 of the molar value.

{"smiles.str": "O=C1NCC[C@H]1C[C@H](NC(=O)[C@@H]1CC2(CC2)CN1C(=O)c1cc2ccccc2[nH]1)C(=O)c1nc2ccccc2s1", "target.entity": "SARS-CoV-2 Mpro (Severe acute respiratory syndrome coronavirus 2)", "assay.readout": "pIC50", "numeric.value": 6.58}
{"smiles.str": "O=C[C@H](C[C@@H]1CCNC1=O)NC(=O)[C@@H]1C[C@@H](F)CN1C(=O)c1cc2ccccc2[nH]1", "target.entity": "SARS-CoV-2 Mpro (Severe acute respiratory syndrome coronavirus 2)", "assay.readout": "pIC50", "numeric.value": 7.29}
{"smiles.str": "N#Cc1cccc2cc(C(=O)N3CC4(CC4)C[C@H]3C(=O)N[C@H](C=O)C[C@@H]3CCNC3=O)[nH]c12", "target.entity": "SARS-CoV-2 Mpro (Severe acute respiratory syndrome coronavirus 2)", "assay.readout": "pIC50", "numeric.value": 7.65}
{"smiles.str": "CC1(C)[C@@H]2[C@@H](C(=O)N[C@@H](C[C@@H]3CCNC3=O)C(=O)C(=O)NC3CC3)N(C(=O)C3(c4cccc(Cl)c4)CC3)C[C@@H]21", "target.entity": "SARS-CoV-2 Mpro (Severe acute respiratory syndrome coronavirus 2)", "assay.readout": "pIC50", "numeric.value": 7.65}
{"smiles.str": "O=C[C@H](C[C@@H]1CCNC1=O)NC(=O)[C@@H]1C[C@@H]2CCC[C@@H]2N1C(=O)c1cc2ccccc2[nH]1", "target.entity": "SARS-CoV-2 Mpro (Severe acute respiratory syndrome coronavirus 2)", "assay.readout": "pIC50", "numeric.value": 6.45}

-- ask // pIC50 lookup, key: C[C@@H]1C[C@@H](C(=O)N[C@H](C=O)C[C@@H]2CCNC2=O)N(C(=O)c2cc3ccccc3[nH]2)C1
-- reply 7.11
